- Test system: Saccharomyces cerevisiae
- experiment-description: Inhibition of yeast alpha-glucosidase at 1.5 uM using p-nitrophenyl-alpha-glucopyranoside as substrate measured after 30 mins relative to control
The following compounds are shown together with reported inhibition values.
Lab book: enter the figure in %, no units written.

[
  {
    "compound": "CC(=O)OCCc1cc(O)c(O)c(-c2cc(CCOC(C)=O)cc(O)c2O)c1",
    "inhibition / %": 31.4
  },
  {
    "compound": "C=CCc1cc(OC)c(O)c(-c2cc(CC=C)cc(OC)c2O)c1",
    "inhibition / %": 46.7
  },
  {
    "compound": "C=CCc1cc(O)c(O)c(-c2cc(CC=C)cc(O)c2O)c1",
    "inhibition / %": 36.7
  },
  {
    "compound": "C[C@H]1O[C@H](O[C@H]2[C@H](O)[C@@H](O)[C@@H](O[C@H]3[C@H](O)[C@@H](O)C(O)O[C@@H]3CO)O[C@@H]2CO)[C@H](O)[C@@H](O)[C@@H]1N[C@H]1C=C(CO)[C@@H](O)[C@H](O)[C@H]1O (some centres undefined)",
    "inhibition / %": 0.7
  },
  {
    "compound": "OCCc1ccc(O)c(-c2cc(CCO)ccc2O)c1",
    "inhibition / %": 76.9
  }
]

Output measured inhibition for this item: C=CCc1ccc(O)c(-c2cc(CC=C)ccc2O)c1
29.8

Fill in reported inhibition for this entry: COc1cc(CCOC(C)=O)cc(-c2cc(CCOC(C)=O)cc(OC)c2O)c1O
64.5

State, in one line, measured inhibition of C=CCc1ccc(O)c(-c2ccc(O)c(CC=C)c2)c1
3.9

Read the entry O=c1c(O)c(-c2ccc(O)c(O)c2)oc2cc(O)cc(O)c12 and write its reported inhibition.
5.3

Retrieve inhibition measured for OCCc1cc(O)c(O)c(-c2cc(CCO)cc(O)c2O)c1 and print it.
18.2

# return recorded inhibition for input COc1cc(CCOC(C)=O)cc(-c2cc(CCOC(C)=O)cc(O)c2O)c1O
21.3

====

- experiment-description: Competitive-inhibition of yeast alpha-glucosidase using varying levels of p-nitrophenyl-alpha-glucopyranoside as substrate incubated for 20 mins measured at 1 min interval by Lineweaver-burk plot analysis
- Set-up: species or system Saccharomyces cerevisiae
metric-name: pKi
// pKi is dimensionless: -log10 of concentration (M)

Please look at this molecule and report its pKi: CC(=O)OCCc1ccc(O)c(-c2cc(CCOC(C)=O)ccc2O)c1
6.07

====

- experiment-description: Inhibition of yeast alpha-glucosidase using p-nitrophenyl-alpha-glucopyranoside as substrate measured after 30 mins
- Parameters: species or system Saccharomyces cerevisiae
metric-name: log10(IC50) (log10 of the value in µM)
Parameter value (number): base-10 log of IC50 in µM.

Past entries and their recorded results:
[
  {
    "compound": "COc1cc(CCOC(C)=O)cc(-c2cc(CCOC(C)=O)cc(OC)c2O)c1O",
    "log10(IC50)": 0.04
  },
  {
    "compound": "C=CCc1cc(OC)c(O)c(-c2cc(CC=C)cc(OC)c2O)c1",
    "log10(IC50)": 0.30
  },
  {
    "compound": "C=CCc1ccc(O)c(-c2cc(CC=C)ccc2O)c1",
    "log10(IC50)": 0.30
  },
  {
    "compound": "C=CCc1cc(O)c(O)c(-c2cc(CC=C)cc(O)c2O)c1",
    "log10(IC50)": 0.32
  },
  {
    "compound": "C=CCc1ccc(O)c(-c2cc(CC=C)cc(O)c2O)c1",
    "log10(IC50)": -0.31
  },
  {
    "compound": "C=CCc1cc(O)c(O)c(-c2cc(CC=C)cc(OC)c2O)c1",
    "log10(IC50)": -0.30
  },
  {
    "compound": "CC(=O)OCCc1cc(O)c(O)c(-c2cc(CCOC(C)=O)cc(O)c2O)c1",
    "log10(IC50)": 0.46
  },
  {
    "compound": "O=c1c(O)c(-c2ccc(O)c(O)c2)oc2cc(O)cc(O)c12",
    "log10(IC50)": 1.15
  },
  {
    "compound": "C=CCc1ccc(O)c(-c2ccc(O)c(CC=C)c2)c1",
    "log10(IC50)": 1.36
  },
  {
    "compound": "OCCc1ccc(O)c(-c2cc(CCO)ccc2O)c1",
    "log10(IC50)": -0.07
  }
]

Look up and state reported log10(IC50) for COc1cc(CCOC(C)=O)cc(-c2cc(CCOC(C)=O)cc(O)c2O)c1O
0.52

Specify reported log10(IC50) for the compound shown: OCCc1cc(O)c(O)c(-c2cc(CCO)cc(O)c2O)c1
0.61

Determine its reported log10(IC50): CC(=O)OCCc1ccc(O)c(-c2cc(CCOC(C)=O)ccc2O)c1
-0.82

Supply measured log10(IC50) of C[C@H]1O[C@H](O[C@H]2[C@H](O)[C@@H](O)[C@@H](O[C@H]3[C@H](O)[C@@H](O)C(O)O[C@@H]3CO)O[C@@H]2CO)[C@H](O)[C@@H](O)[C@@H]1N[C@H]1C=C(CO)[C@@H](O)[C@H](O)[C@H]1O (stereo partly specified) in your reply.
2.43
